test system: HIV; assay: microbe, parasite or virus in culture; details: selectivity index, ratio of CC50 to IC50, as log difference
So I've got a bunch of molecules here, and I need their pSI (pCC50-pIC50) values.
One number for each entry.

Recorded results for 3 molecules are shown here.
> print(dat)
                                   molecule  endpoint.result
1  CC/C(=C\C#N)c1cc(C)c(Nc2ccnc(Nc3ccc(C#N)cc3)n2)c(C)c1             −3.9
2  C/C(C#N)=C/c1cc(C)c(Nc2ccnc(Nc3ccc(C#N)cc3)n2)c(C)c1 [Compound 152]             −4.3
3  C/C(C#N)=C/c1cc(C)c(Nc2ccnc(Nc3ccc(C#N)cc3)n2)c(C)c1 [Compound 11]             −3.5

Lab note: next molecule to report on.
IN: I would be grateful if you could share the reported pSI (pCC50-pIC50) for `Cc1cc(/C=C/C(=O)N2CCOCC2)cc(C)c1Nc1ccnc(Nc2ccc(C#N)cc2)n1` .
OUT: −2.6

====

tested on: HIV; experiment: microbe, parasite or virus in culture; settings: selectivity index, ratio of CC50 to IC50, as log difference
readout kind: pSI (pCC50-pIC50)
Give bare numbers.

Recorded results for 4 compounds are shown here.
> print(dat)
                                   compound  tested.on       readout.kind  endpoint.result
1  Cc1cc(/C=C/C(=O)N(C)CC#N)cc(C)c1Oc1ccnc(Nc2ccc(C#N)cc2)n1        HIV  pSI (pCC50-pIC50)             −4.1
2  Cc1cc(CC(C)C#N)cc(C)c1Nc1ccnc(Nc2ccc(C#N)cc2)n1 (centres unmarked)        HIV  pSI (pCC50-pIC50)             −2.9
3  Cc1cc(-c2ccsc2)cc(C)c1Nc1ccnc(Nc2ccc(C#N)cc2)n1        HIV  pSI (pCC50-pIC50)             −3.5
4  Cc1cc(/C=C/C(=O)N(C)C)cc(C)c1Nc1ccnc(Nc2ccc(C#N)cc2)n1        HIV  pSI (pCC50-pIC50)             −4.2

Lab note: next compound to report on.
IN: I would be grateful if you could share the reported pSI (pCC50-pIC50) for `N#C/C=C/c1ccc(Nc2ccnc(Nc3ccc(C#N)cc3)n2)c(Br)c1` .
OUT: −5.2

====

So I've got a bunch of compounds here, and I need their pSI (pCC50-pIC50) values.
tested on: HIV; experiment: microbe, parasite or virus in culture; settings: selectivity index, ratio of CC50 to IC50, as log difference
Numbers only.

> print(dat)
                                   compound       readout.kind  endpoint.result
1  Cc1cc(C=CC#N)cc(C)c1Oc1ccnc(Nc2ccc(C#N)cc2)n1  pSI (pCC50-pIC50)               −5
2  Cc1cc(CC#N)cc(Cl)c1Nc1ccnc(Nc2ccc(C#N)cc2)n1  pSI (pCC50-pIC50)             −3.9
3  COc1cc(CCC#N)ccc1Nc1ccnc(Nc2ccc(C#N)cc2)n1  pSI (pCC50-pIC50)             −3.9

Go through the list and state pSI (pCC50-pIC50) for each entry.
1. Cc1cc(/C=C/C(=O)N(C)CCC#N)cc(C)c1Nc1ccnc(Nc2ccc(C#N)cc2)n1
2. Cc1cc(CN(C)C=NC#N)cc(C)c1Oc1ccnc(Nc2ccc(C#N)cc2)n1
3. CC(=NO)c1cc(C)c(Nc2ccnc(Nc3ccc(C#N)cc3)n2)c(C)c1
4. Cc1cc(C(O)CC#N)cc(C)c1Nc1ccnc(Nc2ccc(C#N)cc2)n1 (centres unmarked)
5. CCN(Cc1ccncc1)Cc1cc(C)c(Nc2ccnc(Nc3ccc(C#N)cc3)n2)c(C)c1

OUT:
["−3.5", "−3.5", "−3.8", "−4.0", "−2.7"]

Go through the list and state pSI (pCC50-pIC50) for each entry.
1. CO/N=C(\c1cc(C)c(Nc2ccnc(Nc3ccc(C#N)cc3)n2)c(C)c1)C(C)C
2. Cc1cc(/C=C(\C#N)c2cccs2)cc(C)c1Nc1ccnc(Nc2ccc(C#N)cc2)n1

OUT:
1. −4
2. −3.2

Go through the list and state pSI (pCC50-pIC50) for each entry.
1. COc1cc(/C=C/C#N)ccc1Nc1ccnc(Nc2ccc(C#N)cc2)n1
2. CC(=CC#N)c1cc(C)c(Oc2ccnc(Nc3ccc(C#N)cc3)n2)c(C)c1

OUT:
["−4.8", "−4.2"]
